test system: blood coagulation; assay: PT and aPTT assay in cynomolgus monkeys (Example 46); type: in vivo; conditions: Day 55; platelet poor plasma; relative to PBS group
Strand notation (5' to 3'): a small letter for the sugar, then the base; units joined by * are phosphorothioate-linked, units joined directly phosphodiester-linked; [ ] holds rarer units or linkages, { } end groups; capitals alone tell only the bases. e = 2'-O-(2-methoxyethyl) (MOE); [5mC] = 5-methylcytosine; d = 2'-deoxy (DNA)
Reported values of aPTT ratio relative to PBS group for individual entries

{"substance": "ISIS 449709: 3-8-3, 4-8-4, 2-10-2, 3-10-3 or 4-10-4 MOE microwalk gapmer (Table 46) (antisense eG*e[5mC]*eA*e[5mC]*dA*dG*dT*dT*dT*d[5mC]*dT*dG*dG*d[5mC]*eA*eG*eG*e[5mC])", "aPTT ratio relative to PBS group": 1.17}
{"substance": "ISIS 445531: 5-8-5 or 6-8-6 MOE microwalk gapmer (Table 44) (antisense eG*eG*e[5mC]*eA*eT*dT*dG*dG*dT*dG*d[5mC]*dA*d[5mC]*eA*eG*eT*eT*eT)", "aPTT ratio relative to PBS group": 1.19}
{"substance": "ISIS 416858: MOE gapmer, nucleobases 1275 to 1318 of SEQ ID NO: 1 (Table 8) (antisense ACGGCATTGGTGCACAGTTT; MOE gapmer, wing and gap sizes not given here)", "aPTT ratio relative to PBS group": 1.61}
{"substance": "ISIS 449711: 3-8-3, 4-8-4, 2-10-2, 3-10-3 or 4-10-4 MOE microwalk gapmer (Table 46) (antisense eA*e[5mC]*dA*dG*dT*dT*dT*d[5mC]*dT*dG*dG*d[5mC]*eA*eG)", "aPTT ratio relative to PBS group": 0.96}
{"substance": "ISIS 445522: 5-8-5 or 6-8-6 MOE microwalk gapmer (Table 44) (antisense eG*e[5mC]*eA*e[5mC]*eA*dG*dT*dT*dT*d[5mC]*dT*dG*dG*e[5mC]*eA*eG*eG*e[5mC])", "aPTT ratio relative to PBS group": 1.42}

###

test: Tolerability in Sprague-Dawley rats: hematology assays (Example 35); settings: 50 mg/kg s.c. twice per week for 6 weeks
# label = criterion met if neutrophils < 20% else criterion not met

{"substance": "ISIS 416864: MOE gapmer, nucleobases 1275 to 1318 of SEQ ID NO: 1 (Table 8) (antisense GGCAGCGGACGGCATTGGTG; MOE gapmer, wing and gap sizes not given here)", "category-label": "criterion not met"}
{"substance": "ISIS 416838: MOE gapmer, nucleobases 1018 to 1042 of SEQ ID NO: 1 (Table 6) (antisense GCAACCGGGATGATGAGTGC; MOE gapmer, wing and gap sizes not given here)", "category-label": "criterion met"}
{"substance": "ISIS 416850: MOE gapmer, nucleobases 1275 to 1318 of SEQ ID NO: 1 (Table 8) (antisense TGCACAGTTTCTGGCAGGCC; MOE gapmer, wing and gap sizes not given here)", "category-label": "criterion not met"}
{"substance": "ISIS 417002: MOE gapmer, nucleobases 1275 to 1318 of SEQ ID NO: 1 (Table 8) (antisense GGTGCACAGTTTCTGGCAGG; MOE gapmer, wing and gap sizes not given here)", "category-label": "criterion not met"}

###

Tested on: human Factor 11 mRNA
Assay: Antisense inhibition of human Factor 11 in HepG2 cells by microwalk gapmers, lipofectin, 75 nM (Example 3)
Type: cell-based
Conditions: HepG2, lipofectin, ~24 h, gapmers targeted to nucleobases 656 to 704 of SEQ ID NO: 1
Method: These gapmers were designed by creating gapmers shifted slightly upstream and downstream (i.e. “microwalk”) of the original gapmers from Table 3. Gapmers were also created with various motifs, e.g. 5-10-5 MOE, 3-14-3 MOE, and 2-13-5 MOE. […] After a treatment period of approximately 24 hours, RNA was isolated from the cells and Factor 11 mRNA levels were measured by quantitative real-time PCR. Factor 11 mRNA levels were adjusted according to total RNA content, as measured by RIBOGREEN. […]
Strand notation (5' to 3'): a small letter for the sugar, then the base; units joined by * are phosphorothioate-linked, units joined directly phosphodiester-linked; [ ] holds rarer units or linkages, { } end groups; capitals alone tell only the bases. e = 2'-O-(2-methoxyethyl) (MOE); [5mC] = 5-methylcytosine; d = 2'-deoxy (DNA)
The label depends only on % inhibition: Satisfied if it is at least 80%, Not satisfied if it is smaller.

{"substance": "416893 (antisense eT*eG*e[5mC]*d[5mC]*d[5mC]*dT*dT*d[5mC]*dA*dT*dG*dT*d[5mC]*dT*dA*dG*dG*eT*e[5mC]*e[5mC]) [compound 416893]", "category-label": "Satisfied"}
{"substance": "416871 (antisense eA*eT*eA*dA*dA*dT*dG*dT*d[5mC]*dT*dT*dT*dG*dT*dT*dG*d[5mC]*eA*eA*eG) [compound 416871]", "category-label": "Not satisfied"}
{"substance": "416811 (antisense e[5mC]*e[5mC]*eA*e[5mC]*eA*dT*dA*dA*dA*dT*dG*dT*d[5mC]*dT*dT*eT*eG*eT*eT*eG) [compound 416811]", "category-label": "Satisfied"}
{"substance": "416972 (antisense eT*eA*dT*dG*d[5mC]*d[5mC]*d[5mC]*dT*dT*d[5mC]*dA*dT*dG*dT*d[5mC]*eT*eA*eG*eG*eT) [compound 416972]", "category-label": "Satisfied"}
{"substance": "416820 (antisense e[5mC]*eA*eT*eG*eT*d[5mC]*dT*dA*dG*dG*dT*d[5mC]*d[5mC]*dA*d[5mC]*eA*eT*eA*eA*eA) [compound 416820]", "category-label": "Not satisfied"}

###

test system: Factor 11 protein; assay: Factor 11 protein in monkey plasma by sandwich ELISA (Example 46); assay type: in vivo, cynomolgus monkeys; conditions: Day 24, plasma, 25 mg/kg subcutaneously
Strand notation (5' to 3'): a small letter for the sugar, then the base; units joined by * are phosphorothioate-linked, units joined directly phosphodiester-linked; [ ] holds rarer units or linkages, { } end groups; capitals alone tell only the bases. e = 2'-O-(2-methoxyethyl) (MOE); [5mC] = 5-methylcytosine; d = 2'-deoxy (DNA)
Recorded Inhibition of Factor 11 protein relative to the PBS control (percentage reduction) for the following substances
observed-property: Inhibition of Factor 11 protein relative to the PBS control (percentage reduction)

{"substance": "445531 (antisense eG*eG*e[5mC]*eA*eT*dT*dG*dG*dT*dG*d[5mC]*dA*d[5mC]*eA*eG*eT*eT*eT) [compound 445531]", "measured-target": "Factor 11 protein", "result": "23%"}
{"substance": "449709 (antisense eG*e[5mC]*eA*e[5mC]*dA*dG*dT*dT*dT*d[5mC]*dT*dG*dG*d[5mC]*eA*eG*eG*e[5mC]) [compound 449709]", "measured-target": "Factor 11 protein", "result": "44%"}
{"substance": "449708 (antisense eA*e[5mC]*eA*dG*dT*dT*dT*d[5mC]*dT*dG*dG*e[5mC]*eA*eG) [compound 449708]", "measured-target": "Factor 11 protein", "result": "3%"}
{"substance": "445522 (antisense eG*e[5mC]*eA*e[5mC]*eA*dG*dT*dT*dT*d[5mC]*dT*dG*dG*e[5mC]*eA*eG*eG*e[5mC]) [compound 445522]", "measured-target": "Factor 11 protein", "result": "61%"}
{"substance": "416850 (antisense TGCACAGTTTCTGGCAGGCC; 5-10-5 gapmer, further chemistry not given here) [compound 416850]", "measured-target": "Factor 11 protein", "result": "38%"}
{"substance": "449710 (antisense e[5mC]*eA*e[5mC]*dA*dG*dT*dT*dT*d[5mC]*dT*dG*dG*d[5mC]*eA*eG*eG) [compound 449710]", "measured-target": "Factor 11 protein", "result": "17%"}
{"substance": "449711 (antisense eA*e[5mC]*dA*dG*dT*dT*dT*d[5mC]*dT*dG*dG*d[5mC]*eA*eG) [compound 449711]", "measured-target": "Factor 11 protein", "result": "6%"}
{"substance": "416858 (antisense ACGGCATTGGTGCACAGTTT; 5-10-5 gapmer, further chemistry not given here) [compound 416858]", "measured-target": "Factor 11 protein", "result": "62%"}
{"substance": "449707 (antisense e[5mC]*eA*e[5mC]*eA*dG*dT*dT*dT*d[5mC]*dT*dG*dG*e[5mC]*eA*eG*eG) [compound 449707]", "measured-target": "Factor 11 protein", "result": "21%"}

###

Consider the following substances and their measured Urine protein/creatinine ratio readings.
assay: Tolerability in Sprague-Dawley rats: kidney function, urine protein/creatinine (Example 35); conditions: Sprague Dawley rats; After treatment, 50 mg/kg s.c. twice per week for 6 weeks

{"substance": "416858 (antisense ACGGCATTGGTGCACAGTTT; 5-10-5 gapmer, further chemistry not given here) [compound 416858]", "Urine protein/creatinine ratio": 4.4}
{"substance": "416864 (antisense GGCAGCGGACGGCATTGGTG; 5-10-5 gapmer, further chemistry not given here) [compound 416864]", "Urine protein/creatinine ratio": 4.0}
{"substance": "416826 (antisense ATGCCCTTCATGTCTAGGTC; 5-10-5 gapmer, further chemistry not given here) [compound 416826]", "Urine protein/creatinine ratio": 11.4}
{"substance": "416850 (antisense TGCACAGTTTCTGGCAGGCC; 5-10-5 gapmer, further chemistry not given here) [compound 416850]", "Urine protein/creatinine ratio": 4.0}
{"substance": "417003 (antisense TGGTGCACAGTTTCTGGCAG; 2-13-5 gapmer chemistry, further chemistry not given here) [compound 417003]", "Urine protein/creatinine ratio": 4.8}
{"substance": "416825 (antisense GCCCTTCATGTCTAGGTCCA; 5-10-5 gapmer, further chemistry not given here) [compound 416825]", "Urine protein/creatinine ratio": 5.4}

meta.source: patent US20230263822A1
